Tested on: PBMC
Procedure text: Growth inhibition of human PBMC cells cocultured with irradiated HTLV-1 positive MT2 cells at 250 uM after 7 days
Assay type: functional, cell-based
The source made the active and inactive calls. No cut-off for these calls is given here.
Value kind: inhibition

1) O=C(O)c1ccc2ccc(/C=C/c3ccc(O)c(O)c3)nc2c1O = Active
2) O=C(O)C(=O)CC(=O)c1cccn1Cc1ccc(F)cc1 = Active
3) COc1cc(/C=C/c2ccc3ccc(C(=O)O)c(O)c3n2)cc(OC)c1O = Active
4) O=C(O)C(=O)CC(=O)c1cccc(Cc2ccccc2)c1 = Active
5) COc1cc(/C=C/c2ccc3ccc(C(=O)O)c(O)c3n2)cc(O)c1O = Active

###

Tested on: PBMC
Procedure text: Growth inhibition of human PBMC cells cocultured with irradiated HTLV-1 positive MT2 cells at 50 uM after 21 days
Type: functional, cell-based
Active and inactive are the calls of the source. The rule behind the calls is not given here.
Value kind: inhibition

1. O=C(O)c1ccc2ccc(/C=C/c3ccc(O)c(O)c3)nc2c1O = Active
2. O=C(O)C(=O)CC(=O)c1cccc(Cc2ccccc2)c1 = Active
3. COc1cc(/C=C/c2ccc3ccc(C(=O)O)c(O)c3n2)cc(OC)c1O = Active
4. COc1cc(/C=C/c2ccc3ccc(C(=O)O)c(O)c3n2)cc(O)c1O = Active
5. O=C(O)C(=O)CC(=O)c1cccn1Cc1ccc(F)cc1 = Active

Sourced from ChEMBL document CHEMBL1629544
